Target: human src SH2 domain (Homo sapiens, UniProt P12931)
Sequence (P12931 151-248): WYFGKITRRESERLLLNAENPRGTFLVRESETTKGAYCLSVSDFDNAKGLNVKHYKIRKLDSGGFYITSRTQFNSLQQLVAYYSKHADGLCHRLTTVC
Assay: SH2 domain / pY peptide binding assay (ELISA-based, 96 well plate), src SH2
Settings: Ki calculated from IC50 by the expanded equation; Table II; read-out: Src (Ki)
Description: The inhibitory activity of compounds at the different human SH2 domains was determined in vitro using SH2 domains expressed as fusion proteins in E. coli. […] The fusion proteins containing the src, lck and hcp SH2 domains were expressed as the general sequence: DET1-DET2-spacer-ek-SH2, where DETI, DET2, spacer, ek and SH2 are as described below. […] The A490 of each ELISA plate was then determined. […]
Assay readout: pKi
Note on units: pKi is unitless, being -log10 of a concentration expressed in mol/L.

Form field: reported pKi of CCCCCCNC(=O)[C@H]1CC[C@H](CNC(=O)c2ccc([N+](=O)[O-])cc2)CC1
4.70
